- tested_system: T1, human iRhom2 (inactive rhomboid protein 2, isoform 1), endogenously expressed on human cells (human, UniProt Q6PJF5 1-856)
- T1 sequence: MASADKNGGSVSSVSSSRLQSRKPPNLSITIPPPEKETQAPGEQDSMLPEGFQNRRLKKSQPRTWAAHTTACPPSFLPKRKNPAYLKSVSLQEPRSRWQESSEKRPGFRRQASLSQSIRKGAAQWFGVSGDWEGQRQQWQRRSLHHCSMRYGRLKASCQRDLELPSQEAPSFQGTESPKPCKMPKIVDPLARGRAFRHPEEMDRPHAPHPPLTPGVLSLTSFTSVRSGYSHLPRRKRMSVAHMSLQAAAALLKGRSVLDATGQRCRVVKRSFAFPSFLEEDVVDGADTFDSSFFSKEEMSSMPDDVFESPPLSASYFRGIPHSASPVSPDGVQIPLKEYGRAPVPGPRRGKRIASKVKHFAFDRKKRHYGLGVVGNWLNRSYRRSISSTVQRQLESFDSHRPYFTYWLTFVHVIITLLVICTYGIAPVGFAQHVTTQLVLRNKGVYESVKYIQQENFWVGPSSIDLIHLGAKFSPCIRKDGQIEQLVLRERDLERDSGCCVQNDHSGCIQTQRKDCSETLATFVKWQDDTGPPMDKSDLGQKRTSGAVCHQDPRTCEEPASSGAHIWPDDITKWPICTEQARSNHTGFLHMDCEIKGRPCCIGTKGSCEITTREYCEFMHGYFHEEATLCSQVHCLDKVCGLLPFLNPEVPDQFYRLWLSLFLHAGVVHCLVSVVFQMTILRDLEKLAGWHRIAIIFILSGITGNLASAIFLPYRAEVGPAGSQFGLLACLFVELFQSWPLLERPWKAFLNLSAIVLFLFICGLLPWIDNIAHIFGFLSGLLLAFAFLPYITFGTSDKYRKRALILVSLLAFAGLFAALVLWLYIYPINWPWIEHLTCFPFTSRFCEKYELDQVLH
- test_details: cell-based or functional assay
Provide the reported inhibition of PMA-induced release of IL-6R from U-937 cells, 1 µg/ml of each item.
One number for each entry, in % inhibition.

| binder | recorded_result |
| --- | --- |
| antibody 42 (antibody, V domains shown, Mouse IgG, kappa light chain; also called clone #42; m42) VH: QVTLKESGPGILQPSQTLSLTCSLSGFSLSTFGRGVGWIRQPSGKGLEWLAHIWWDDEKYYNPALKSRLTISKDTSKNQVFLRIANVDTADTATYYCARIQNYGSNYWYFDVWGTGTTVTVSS VL: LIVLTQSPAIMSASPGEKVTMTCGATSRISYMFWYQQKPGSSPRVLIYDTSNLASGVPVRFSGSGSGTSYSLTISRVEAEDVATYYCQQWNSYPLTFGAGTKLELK | 80.8 |
| antibody 3 (antibody, V domains shown, Mouse IgG, kappa light chain; also called clone #3; purified antibody 3) VH: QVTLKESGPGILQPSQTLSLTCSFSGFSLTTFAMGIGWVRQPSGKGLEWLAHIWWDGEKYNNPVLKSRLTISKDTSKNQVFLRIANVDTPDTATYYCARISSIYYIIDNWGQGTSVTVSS VL: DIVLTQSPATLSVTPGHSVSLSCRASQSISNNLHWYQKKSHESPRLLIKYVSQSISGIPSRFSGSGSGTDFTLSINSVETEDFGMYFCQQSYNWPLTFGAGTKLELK | 61.8 |

antibody 16 (antibody, V domains shown, Mouse IgG, kappa light chain; also called clone #16; m16) VH: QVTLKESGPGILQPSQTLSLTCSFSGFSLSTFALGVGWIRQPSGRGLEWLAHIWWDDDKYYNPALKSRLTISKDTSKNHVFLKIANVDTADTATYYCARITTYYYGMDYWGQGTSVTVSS VL: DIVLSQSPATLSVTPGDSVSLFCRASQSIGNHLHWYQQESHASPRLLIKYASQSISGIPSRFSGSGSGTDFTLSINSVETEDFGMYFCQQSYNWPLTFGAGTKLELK has a reported inhibition of PMA-induced release of IL-6R from U-937 cells, 1 µg/ml of 77.7
